Measured IC50 values are reported for all entries that follow.
Measured Target: Human LPA1 (Homo sapiens)
Method Description: LPA1 calcium flux assay
Experimental Context: human LPA1 expressing CHO cells; stimulated with 10 nM LPA; read-out: Ca Flux LPA1 IC50
Recorded Metric: IC50

>  <Compound>
Cc1snc(-c2ccc(-c3ccc(C4(C(=O)O)CC4)cc3)cc2)c1NC(=O)O[C@H](C)c1ccccc1 [Compound 105]

>  <Recorded Metric>
IC50

>  <Recorded Result>
< 50 nM

$$$$
>  <Compound>
Cc1nsc(-c2ccc(-c3ccc(C4(C(=O)O)CC4)cc3)cc2)c1NC(=O)O[C@H](C)c1ccccc1F [Compound 83]

>  <Recorded Metric>
IC50

>  <Recorded Result>
50 to 500 nM

$$$$
>  <Compound>
C[C@@H](OC(=O)Nc1ccnn1-c1ccc(-c2ccc(C3(C(=O)O)CC3)cc2)cc1)c1ccccc1Cl [Compound 67]

>  <Recorded Metric>
IC50

>  <Recorded Result>
< 50 nM

$$$$
>  <Compound>
Cc1nsc(-c2ccc(-c3ccc(C4(C(=O)O)CC4)cc3)cc2)c1NC(=O)O[C@H](C)c1ccccc1 [Compound 44]

>  <Recorded Metric>
IC50

>  <Recorded Result>
< 50 nM

$$$$
>  <Compound>
Cc1noc(-c2ccc(-c3ccc(C4(C(=O)O)CC4)cc3)cc2)c1NC(=O)O[C@H](C)c1ccccc1 [Compound 74]

>  <Recorded Metric>
IC50

>  <Recorded Result>
< 50 nM

$$$$
>  <Compound>
C[C@@H](OC(=O)Nc1c(-c2cc(F)c(-c3ccc(C4(C(=O)O)CC4)cc3)cc2F)cnn1C)c1ccccc1 [Compound 200]

>  <Recorded Metric>
IC50

>  <Recorded Result>
50 to 500 nM

$$$$
>  <Compound>
Cc1nsc(-c2ccc(-c3ccc(C4(C(=O)O)CC4)cc3)c(F)c2)c1NC(=O)O[C@H](C)c1ccccc1 [Compound 185]

>  <Recorded Metric>
IC50

>  <Recorded Result>
< 50 nM

$$$$

###

Measured Target: Human LPA1 (Homo sapiens, UniProt Q92633)
Sequence (Q92633 whole entry): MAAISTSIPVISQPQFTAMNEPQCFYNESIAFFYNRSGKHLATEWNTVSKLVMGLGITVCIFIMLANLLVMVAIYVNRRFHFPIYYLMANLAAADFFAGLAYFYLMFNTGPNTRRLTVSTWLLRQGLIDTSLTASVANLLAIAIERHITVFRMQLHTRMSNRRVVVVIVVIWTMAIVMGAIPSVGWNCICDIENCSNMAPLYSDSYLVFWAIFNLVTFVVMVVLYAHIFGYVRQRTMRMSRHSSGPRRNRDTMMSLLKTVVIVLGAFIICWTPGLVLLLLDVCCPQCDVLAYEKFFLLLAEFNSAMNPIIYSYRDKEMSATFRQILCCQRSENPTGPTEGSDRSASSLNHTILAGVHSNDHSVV
Method Description: Beta-Arrestin based assay for human LPA1R antagonists (PathHunter)
Experimental Context: CHO cells stably expressing ProLink tagged human LPA1R; agonist LPA 0.5 micromolar
This section presents compounds with their documented EC50 values.
Recorded Metric: EC50

>  <Compound>
C[C@@H](OC(=O)Nc1c(-c2ccc(-c3ccc(C4(C(=O)O)CC4)cc3)cc2)oc2ncccc12)c1ccccc1 [Compound 152]

>  <Recorded Metric>
EC50

>  <Recorded Result>
< 0.05 µM

$$$$
>  <Compound>
Cc1noc(-c2ccc(-c3ccc(N4CC[C@@H](C(=O)O)C4)cc3)cc2)c1NC(=O)O[C@H](C)c1ccccc1Cl [Compound 134]

>  <Recorded Metric>
EC50

>  <Recorded Result>
0.05 to 0.5 µM

$$$$
>  <Compound>
Cc1nsc(-c2ccc(-c3ccc(C4(C(=O)O)CC4)cc3)cc2)c1NC(=O)O[C@H](C)C1=C(Cl)CCC1 (single isomer, unassigned) [Compound 216]

>  <Recorded Metric>
EC50

>  <Recorded Result>
< 0.05 µM

$$$$
>  <Compound>
C[C@@H](OC(=O)Nc1c(-c2ccc(-c3ccc(CC(=O)O)cc3)cc2)oc2ccccc12)c1ccccc1Cl [Compound 31]

>  <Recorded Metric>
EC50

>  <Recorded Result>
0.05 to 0.5 µM

$$$$
>  <Compound>
Cc1nsc(-c2ccc(-c3ccc(C(C(=O)O)c4ccccc4)cc3)cc2)c1NC(=O)O[C@H](C)c1ccccc1Cl (single isomer, unassigned) [Compound 70]

>  <Recorded Metric>
EC50

>  <Recorded Result>
< 0.05 µM

$$$$
>  <Compound>
CCC(=O)Nc1ccnc(-c2ccc(-c3ccc(CC(=O)O)cc3)cc2)c1 [reference compound]

>  <Recorded Metric>
EC50

>  <Recorded Result>
> 0.5 µM

$$$$
>  <Compound>
Cc1noc(-c2ccc(-c3ccc(CC(=O)O)cc3)cc2)c1NS(=O)(=O)c1ccccc1 [Compound 19]

>  <Recorded Metric>
EC50

>  <Recorded Result>
> 0.5 µM

$$$$
